Species: Rattus norvegicus
Assay: DrugMatrix - Regimen: Daily Repeat
Assay type: toxicity, organism-based, Sprague-Dawley
Parameters: regimen Daily Repeat, gender Male, age 6-8 weeks
Details: in vivo, po, 0 mg/kg, 120 h, tissue Blood, route oral GAVAGE, dose level Control, time 5 day, vehicle 100 % SALINE

molecule: Cc1cc(CC(=O)O)n(C)c1C(=O)c1ccc(Cl)cc1 [ZOMEPIRAC]
LEUKOCYTE COUNT / x10E3/uL: 13.85

molecule: CC(=O)OCC(CCn1cnc2cnc(N)nc21)COC(C)=O
LEUKOCYTE COUNT / x10E3/uL: 9.45

molecule: Oc1ccccc1O
LEUKOCYTE COUNT / x10E3/uL: 13.85

molecule: CCCc1nn(C)c2c(=O)[nH]c(-c3cc(S(=O)(=O)N4CCN(C)CC4)ccc3OCC)nc12
LEUKOCYTE COUNT / x10E3/uL: 9.45

---

TOTAL BILIRUBIN overview
Species: Rattus norvegicus
Experiment: DrugMatrix - Regimen: Daily Repeat
Format: toxicity, organism-based, Sprague-Dawley
Set-up: regimen Daily Repeat, gender Male, age 6-8 weeks
Conditions: in vivo, po, 0 mg/kg, 72 h, tissue Plasma, route oral GAVAGE, dose level Control, time 3 day, vehicle .5 % CMC

compound: CN1C(=O)CN=C(c2ccccc2)c2cc(Cl)ccc21
TOTAL BILIRUBIN (mg/dL): 0.18

compound: C=C(CC)C(=O)c1ccc(OCC(=O)O)c(Cl)c1Cl
TOTAL BILIRUBIN (mg/dL): 0.78

compound: Cc1cnc(C(=O)NCCc2ccc(S(=O)(=O)NC(=O)NC3CCCCC3)cc2)cn1 [GLIPIZIDE]
TOTAL BILIRUBIN (mg/dL): 0.15

compound: C[C@@H](O)[C@H]1C(=O)N2C(C(=O)O)=C(S[C@@H]3CN[C@H](C(=O)N(C)C)C3)[C@H](C)[C@H]12
TOTAL BILIRUBIN (mg/dL): 0.15

compound: CCCCC1C(=O)N(c2ccccc2)N(c2ccccc2)C1=O
TOTAL BILIRUBIN (mg/dL): 0.23

compound: C[C@@H]1CC[C@H]2[C@@H](C)C(=O)O[C@@H]3O[C@@]4(C)CC[C@@H]1[C@]32OO4
TOTAL BILIRUBIN (mg/dL): 0.18

compound: C[C@]12C/C(=C/O)C(=O)C[C@@H]1CC[C@@H]1[C@@H]2CC[C@@]2(C)[C@H]1CC[C@]2(C)O
TOTAL BILIRUBIN (mg/dL): 0.48

compound: Nc1cccc(Cl)c1
TOTAL BILIRUBIN (mg/dL): 0.42

---

Species: Rattus norvegicus
Assay: DrugMatrix - Regimen: Daily Repeat
Format: toxicity, organism-based, Sprague-Dawley
Set-up: regimen Daily Repeat, gender Male, age 6-8 weeks
Settings: in vivo, po, 1200 mg/kg, […], tissue Blood, route oral GAVAGE, dose level High, time 14 day
readoutType: ABSOLUTE BASOPHIL (cells/µL)

compound: CC[C@H](C)C(=O)O[C@H]1C[C@H](O)C=C2C=C[C@H](C)[C@H](CC[C@@H](O)C[C@@H](O)CC(=O)O)[C@H]21 [PRAVASTATIN]
readoutType: ABSOLUTE BASOPHIL
resultValue: 66.7

---

Organism: Rattus norvegicus
Assay: DrugMatrix - Regimen: Daily Repeat
Assay type: toxicity, organism-based, Sprague-Dawley
Set-up: regimen Daily Repeat, gender Male, age 6-8 weeks
Details: in vivo, po, 0 mg/kg, 72 h, tissue Blood, route oral GAVAGE, dose level Control, time 3 day, […]
Here, each record is paired with measured HEMOGLOBIN data.
readoutType: HEMOGLOBIN

molecule: CC[C@H](C)C(=O)O[C@H]1C[C@@H](C)C=C2C=C[C@H](C)[C@H](CC[C@@H]3C[C@@H](O)CC(=O)O3)[C@H]21 [LOVASTATIN]
resultValue: 12.37 G/DL

molecule: C#C[C@]1(O)CC[C@H]2[C@@H]3CCc4cc(O)ccc4[C@H]3CC[C@@]21C [ETHINYL ESTRADIOL]
resultValue: 13.38 G/DL

molecule: COc1ncnc(NS(=O)(=O)c2ccc(N)cc2)c1OC [SULFADOXINE]
resultValue: 13.42 G/DL

molecule: OCCN1CCN(CCCN2c3ccccc3Sc3ccc(C(F)(F)F)cc32)CC1 [FLUPHENAZINE]
resultValue: 12.98 G/DL

molecule: CC(=O)Nc1nnc(S(N)(=O)=O)s1 [ACETAZOLAMIDE]
resultValue: 13.42 G/DL

molecule: CC(C)Cc1ccc(CC(=O)O)cc1 [IBUFENAC]
resultValue: 12.42 G/DL

molecule: NC[C@@H]1O[C@H](O[C@H]2[C@@H](O)[C@H](O[C@@H]3[C@@H](O)[C@H](N)C[C@H](N)[C@H]3O[C@H]3O[C@H](CN)[C@@H](O)[C@H](O)[C@H]3N)O[C@@H]2CO)[C@H](N)[C@@H](O)[C@@H]1O [FRAMYCETIN]
resultValue: 12.95 G/DL

molecule: CC(CCc1ccc(O)cc1)NCCc1ccc(O)c(O)c1 (stereo unspecified) [DOBUTAMINE]
resultValue: 14.53 G/DL

molecule: CC[C@H](C)C(=O)O[C@H]1C[C@H](O)C=C2C=C[C@H](C)[C@H](CC[C@@H](O)C[C@@H](O)CC(=O)O)[C@H]21 [PRAVASTATIN]
resultValue: 12.87 G/DL

molecule: CN(CCOc1ccc(CC2SC(=O)NC2=O)cc1)c1ccccn1 (stereo unspecified) [ROSIGLITAZONE]
resultValue: 12.87 G/DL

molecule: CCn1cc(C(=O)O)c(=O)c2cc(F)c(N3CCNCC3)nc21 [ENOXACIN]
resultValue: 13.38 G/DL

---

Species: Rattus norvegicus
Assay: DrugMatrix - Regimen: Daily Repeat
Format: toxicity, organism-based, Sprague-Dawley
Design: regimen Daily Repeat, gender Male, age 6-8 weeks
Settings: in vivo, po, 0 mg/kg, 72 h, tissue Plasma, route oral GAVAGE, dose level Control, time 3 day, […]

compound: CN(CCOc1ccc(CC2SC(=O)NC2=O)cc1)c1ccccn1 (centres undefined)
PHOSPHORUS, mg/dL: 10.07
//
compound: CC[C@H](C)C(=O)O[C@H]1C[C@H](O)C=C2C=C[C@H](C)[C@H](CC[C@@H](O)C[C@@H](O)CC(=O)O)[C@H]21
PHOSPHORUS, mg/dL: 10.07
//
compound: OCCN1CCN(CCCN2c3ccccc3Sc3ccc(C(F)(F)F)cc32)CC1
PHOSPHORUS, mg/dL: 10.2
//
compound: CC(CCc1ccc(O)cc1)NCCc1ccc(O)c(O)c1 (centres undefined)
PHOSPHORUS, mg/dL: 10.2

---

Organism: Rattus norvegicus
Test: DrugMatrix - Regimen: Daily Repeat
Format: toxicity, organism-based, Sprague-Dawley
Design: regimen Daily Repeat, gender Male, age 6-8 weeks
Conditions: in vivo, po, 0 mg/kg, 120 h, tissue Blood, route oral GAVAGE, dose level Control, time 5 day, vehicle 100 % SALINE

compound: Cc1cc(CC(=O)O)n(C)c1C(=O)c1ccc(Cl)cc1 [ZOMEPIRAC]
measurementUnits: CELLS/uL
ABSOLUTE MONOCYTE: 90.67
--
compound: Oc1ccccc1O [CATECHOL]
measurementUnits: CELLS/uL
ABSOLUTE MONOCYTE: 90.67
--
compound: CC(=O)OCC(CCn1cnc2cnc(N)nc21)COC(C)=O [FAMCICLOVIR]
measurementUnits: CELLS/uL
ABSOLUTE MONOCYTE: 79.83
--
compound: CCCc1nn(C)c2c(=O)[nH]c(-c3cc(S(=O)(=O)N4CCN(C)CC4)ccc3OCC)nc12
measurementUnits: CELLS/uL
ABSOLUTE MONOCYTE: 79.83

---

Organism: Rattus norvegicus
Assay: DrugMatrix - Regimen: Daily Repeat
Assay type: toxicity, organism-based, Sprague-Dawley
Parameters: regimen Daily Repeat, gender Male, age 6-8 weeks
Conditions: in vivo, po, 0 mg/kg, 72 h, tissue Plasma, route oral GAVAGE, dose level Control, time 3 day, vehicle .5 % CMC
Quick reference for POTASSIUM among some compounds

compound: C[C@@H]1CC[C@H]2[C@@H](C)C(=O)O[C@@H]3O[C@@]4(C)CC[C@@H]1[C@]32OO4 [ARTEMISININ]
POTASSIUM [MEQ/L]: 6.37
--
compound: O=c1cc(-c2ccccc2)oc2ccc3ccccc3c12 [BETA-NAPHTHOFLAVONE]
POTASSIUM [MEQ/L]: 7.1
--
compound: C[C@@H](O)[C@H]1C(=O)N2C(C(=O)O)=C(S[C@@H]3CN[C@H](C(=O)N(C)C)C3)[C@H](C)[C@H]12 [MEROPENEM]
POTASSIUM [MEQ/L]: 6.33
--
compound: Cc1cnc(C(=O)NCCc2ccc(S(=O)(=O)NC(=O)NC3CCCCC3)cc2)cn1 [GLIPIZIDE]
POTASSIUM [MEQ/L]: 6.21
--
compound: CO[C@H]1C[C@@H]2CC[C@@H](C)[C@@](O)(O2)C(=O)C(=O)N2CCCC[C@H]2C(=O)O[C@H]([C@H](C)C[C@@H]2CC[C@@H](O)[C@H](OC)C2)CC(=O)[C@H](C)/C=C(\C)[C@@H](O)[C@@H](OC)C(=O)[C@H](C)C[C@H](C)/C=C/C=C/C=C/1C [SIROLIMUS]
POTASSIUM [MEQ/L]: 6.43
--
compound: CC(C)(Sc1cc(C(C)(C)C)c(O)c(C(C)(C)C)c1)Sc1cc(C(C)(C)C)c(O)c(C(C)(C)C)c1 [PROBUCOL]
POTASSIUM [MEQ/L]: 6.33
--
compound: COc1ccc(/C=C/C(=O)Nc2ccccc2C(=O)O)cc1OC
POTASSIUM [MEQ/L]: 6.33
--
compound: Clc1cc2c(cc1Cl)Oc1cc(Cl)c(Cl)cc1O2 [2,3,7,8-TETRACHLORODIBENZO-P-DIOXIN]
POTASSIUM [MEQ/L]: 7.1
--
compound: CCOC(=O)[C@H](CCc1ccccc1)N[C@@H](C)C(=O)N1Cc2ccccc2C[C@H]1C(=O)O
POTASSIUM [MEQ/L]: 6.21
--
compound: COc1ccccc1OCC(O)COC(N)=O (stereo not given) [METHOCARBAMOL]
POTASSIUM [MEQ/L]: 6.37
--
compound: C=C(CC)C(=O)c1ccc(OCC(=O)O)c(Cl)c1Cl [ETHACRYNIC ACID]
POTASSIUM [MEQ/L]: 6.8
--
compound: CC[C@]1(O)CC[C@H]2[C@@H]3CCC4=CCCC[C@@H]4[C@H]3CC[C@@]21C
POTASSIUM [MEQ/L]: 6.7
--
compound: C[C@]12C/C(=C/O)C(=O)C[C@@H]1CC[C@@H]1[C@@H]2CC[C@@]2(C)[C@H]1CC[C@]2(C)O [OXYMETHOLONE]
POTASSIUM [MEQ/L]: 7
--
compound: CC(=O)O[C@]1(C(C)=O)CC[C@H]2[C@@H]3C=C(Cl)C4=CC(=O)[C@@H]5C[C@@H]5[C@]4(C)[C@H]3CC[C@@]21C [CYPROTERONE ACETATE]
POTASSIUM [MEQ/L]: 6.21
--
compound: CC(C(=O)O)c1ccc(-c2ccccc2)c(F)c1 (stereo not given) [FLURBIPROFEN]
POTASSIUM [MEQ/L]: 6.33

// provenance: ChEMBL document CHEMBL3885881
